ASSAY CONDITIONS: in n-pentyl acetate, 323.15 K
OBSERVABLE: solubility (mole fraction)
Form rule: numeric answer, no unit written next to it.

Read the entry CN1CCN(C2=Nc3cc(Cl)ccc3Nc3ccccc32)CC1 and write its reported solubility (mole fraction).
0.0334

* * *

ASSAY CONDITIONS: in methyl acetate, 278.15 K
OBSERVABLE: solubility (mole fraction)
I'd appreciate a reply containing only the number, no unit.

Read off the recorded solubility (mole fraction) for CN1CCN(C2=Nc3cc(Cl)ccc3Nc3ccccc32)CC1
0.00616

* * *

ASSAY CONDITIONS: in methyl acetate, 288.15 K
OBSERVABLE: solubility (mole fraction)

Check the records and state solubility (mole fraction) for CN1CCN(C2=Nc3cc(Cl)ccc3Nc3ccccc32)CC1
0.00797

* * *

ASSAY CONDITIONS: in n-butanol, 323.15 K
OBSERVABLE: solubility (mole fraction)
Answer with a number only.

# return recorded solubility (mole fraction) for entry CN1CCN(C2=Nc3cc(Cl)ccc3Nc3ccccc32)CC1
0.0217

* * *

ASSAY CONDITIONS: in n-propanol, 318.15 K
OBSERVABLE: solubility (mole fraction)
Keep it simple and answer with nothing but the number.

Identify solubility (mole fraction) associated with the compound CN1CCN(C2=Nc3cc(Cl)ccc3Nc3ccccc32)CC1
0.0168

* * *

ASSAY CONDITIONS: in 2-methoxyethanol, 313.15 K
OBSERVABLE: solubility (mole fraction)

Give recorded solubility (mole fraction). CN1CCN(C2=Nc3cc(Cl)ccc3Nc3ccccc32)CC1
0.0508

* * *

ASSAY CONDITIONS: in ethanol, 303.15 K
OBSERVABLE: solubility (mole fraction)
Form field (numeric): enter value without unit.

# return recorded solubility (mole fraction) for input CN1CCN(C2=Nc3cc(Cl)ccc3Nc3ccccc32)CC1
0.0081

* * *

ASSAY CONDITIONS: in 2-propoxyethanol, 278.15 K
OBSERVABLE: solubility (mole fraction)

Answer with the recorded solubility (mole fraction) for the molecule listed here: CN1CCN(C2=Nc3cc(Cl)ccc3Nc3ccccc32)CC1
0.042

* * *

ASSAY CONDITIONS: in n-butanol, 303.15 K
OBSERVABLE: solubility (mole fraction)

Give the reported value of solubility (mole fraction) for this record: CN1CCN(C2=Nc3cc(Cl)ccc3Nc3ccccc32)CC1
0.0129

* * *

ASSAY CONDITIONS: in n-pentanol, 308.15 K
OBSERVABLE: solubility (mole fraction)

Using known records, supply solubility (mole fraction) for CN1CCN(C2=Nc3cc(Cl)ccc3Nc3ccccc32)CC1
0.0177

* * *

ASSAY CONDITIONS: in n-butyl acetate, 298.15 K
OBSERVABLE: solubility (mole fraction)

Give the reported value of solubility (mole fraction) for this record: CN1CCN(C2=Nc3cc(Cl)ccc3Nc3ccccc32)CC1
0.0182

* * *

ASSAY CONDITIONS: in n-butanol, 283.15 K
OBSERVABLE: solubility (mole fraction)
I only need the number, thanks.

Determine its reported solubility (mole fraction): CN1CCN(C2=Nc3cc(Cl)ccc3Nc3ccccc32)CC1
0.00761

* * *

ASSAY CONDITIONS: in 2-methoxyethanol, 293.15 K
OBSERVABLE: solubility (mole fraction)
Answer field: number only, no words.

Please report solubility (mole fraction) for the following compound: CN1CCN(C2=Nc3cc(Cl)ccc3Nc3ccccc32)CC1
0.0393
